System: E18 rat cortical neuron-glia co-culture;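 also: MBP fiber length per Olig2+ nucleus over MBP area × intensity per Olig2+ nucleus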
Test: fiber score / MBP score (myelination specific beyond OL differentiation) (ratio); higher = more myelination-specific MBP alignment
Settings: 5 µM; treatment time: 8 days (DIV5-DIV13)
fiber score / MBP score of 0.7 or higher: t. Under 0.7: f.

The examples below pair each entry with its known result.
# molecule, label
measured = [
    ("CC(C)CC(N(C)C)C1(c2ccc(Cl)cc2)CCC1 (stereo not drawn) [Sibutramine]", "t"),
    ("CC[C@@H]1C=CC=CC[C@H](C)[C@@H](O)[C@@H](C)C(=O)[C@H](C)[C@@H](O)[C@H](C)C(=O)[C@H](C)[C@@H](O)[C@H](C)C=CC(=O)O[C@H]2[C@@H](C)[C@@H](CC1)O[C@@]1(CC[C@@H](C)[C@@H](C[C@H](C)O)O1)[C@@H]2C [Oligomycin C]", "t"),
    ("CN1CCN(C(=O)O[C@H]2c3nccnc3C(=O)N2c2ccc(Cl)cn2)CC1 [Eszopiclone]", "t"),
    ("O=C1CC[C@@]2(O)[C@H]3Cc4ccc(O)c5c4[C@@]2(CCN3CC2CC2)[C@H]1O5 [Naltrexone]", "t"),
    ("O=P1(N(CCCl)CCCl)NCCCO1 (stereo not drawn) [Cyclophosphamide]", "f"),
    ("Oc1ccc2c3c1O[C@H]1c4[nH]c5ccccc5c4C[C@@]4(O)[C@@H](C2)N(CC2CC2)CC[C@]314 [Naltrindole]", "f"),
]

Okay, now this molecule:
Query: Could you please find out whether COc1cccc(C2(O)CCCCC2CN(C)C)c1 (stereo not drawn) [Tramadol] has fiber score / MBP score that meets 0.7 or exceeds it?
Reply: t
